- systemUnderTest: human ether-à-go-go-related gene (hERG) potassium channel (human, UniProt Q12809);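 note: peak tail current of the secondary pulse compared with the same well before compound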
- Sequence (Q12809 whole entry, looked up): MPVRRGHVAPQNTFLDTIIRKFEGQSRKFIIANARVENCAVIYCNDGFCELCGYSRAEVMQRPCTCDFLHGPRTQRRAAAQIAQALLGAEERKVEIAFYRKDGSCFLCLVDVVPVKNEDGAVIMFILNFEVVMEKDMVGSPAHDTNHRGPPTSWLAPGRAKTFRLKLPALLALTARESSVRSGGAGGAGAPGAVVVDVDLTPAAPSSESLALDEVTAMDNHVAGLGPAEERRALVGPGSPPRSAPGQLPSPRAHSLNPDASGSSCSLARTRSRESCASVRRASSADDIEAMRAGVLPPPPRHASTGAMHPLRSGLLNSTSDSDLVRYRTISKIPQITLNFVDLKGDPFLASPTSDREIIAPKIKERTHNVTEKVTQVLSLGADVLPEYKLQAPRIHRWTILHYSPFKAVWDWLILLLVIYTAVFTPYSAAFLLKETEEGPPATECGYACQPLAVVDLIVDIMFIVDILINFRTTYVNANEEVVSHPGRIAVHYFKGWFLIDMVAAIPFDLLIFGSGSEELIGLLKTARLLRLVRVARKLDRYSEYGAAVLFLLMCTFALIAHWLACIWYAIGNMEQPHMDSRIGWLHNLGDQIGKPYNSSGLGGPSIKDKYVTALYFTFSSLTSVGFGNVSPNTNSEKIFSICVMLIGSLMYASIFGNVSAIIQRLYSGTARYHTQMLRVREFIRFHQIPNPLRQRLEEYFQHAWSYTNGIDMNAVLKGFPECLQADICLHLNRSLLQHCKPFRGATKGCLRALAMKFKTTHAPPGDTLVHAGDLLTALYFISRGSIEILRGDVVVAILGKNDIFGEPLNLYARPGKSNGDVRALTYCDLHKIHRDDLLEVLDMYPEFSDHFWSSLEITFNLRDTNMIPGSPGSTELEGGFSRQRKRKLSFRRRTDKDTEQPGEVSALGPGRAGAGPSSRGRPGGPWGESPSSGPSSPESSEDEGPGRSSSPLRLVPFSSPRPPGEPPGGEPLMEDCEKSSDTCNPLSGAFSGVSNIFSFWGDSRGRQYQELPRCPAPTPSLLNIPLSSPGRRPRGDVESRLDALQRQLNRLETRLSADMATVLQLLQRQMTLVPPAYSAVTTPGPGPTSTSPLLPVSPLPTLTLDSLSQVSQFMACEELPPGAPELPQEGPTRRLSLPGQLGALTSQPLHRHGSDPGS
- assayName: primary screen, population patch clamp on CHO cells stably expressing hERG; higher = less effect of the substance
Screen size: about 310,000 compounds; about 14,000 (4.5%) showed an effect of 50% or more. Effects have a minus sign here. This excerpt belongs to a sample that is enriched for strong results.
measuredProperty: hERG current change (%, negative = inhibition) at 10uM (%)

* CN1CCN(C2Cc3ccccc3Sc3ccc(Cl)cc32)CC1.O=C([O-])/C=C\C(=O)[O-] (centres unmarked) | -65.9
* Cc1cc(C)n(C(=O)CCCC(=O)n2nc(C)cc2C)n1 | -4.17
* CN1Cc2cccc3c2C(Cc2ccccc2S3)C1.O=C(O)/C=C\C(=O)O (centres unmarked) | -36.6
* CN1CCC(=C(c2ccc(Cl)cc2)c2ccccn2)CC1.O=C([O-])/C=C\C(=O)[O-] | -40.5
* O=C(Nc1ccccc1C(=O)N1CCCC1)c1ccc(Cl)cc1Cl | 14

---

- systemUnderTest: human ether-à-go-go-related gene (hERG) potassium channel (human, UniProt Q12809);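 note: peak tail current of the secondary pulse compared with the same well before compound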
- assayName: primary screen, population patch clamp on CHO cells stably expressing hERG; higher = less effect of the substance
Screen size: about 310,000 compounds; about 14,000 (4.5%) showed an effect of 50% or more. The effect is printed as a negative number. The sample holds strong results, similar compounds and a random draw of the others, so the mix is not that of the screen.
measuredProperty: hERG current change (%, negative = inhibition) at 10uM (%)

* O=C(COC(=O)C1=COCCO1)Nc1ccc(F)c(F)c1 | -1.21
* CCCN(CCC)CC(O)CN(c1cc([N+](=O)[O-])ccc1OC)S(=O)(=O)c1ccccc1.Cl (stereo not shown) | -60.4
* CCC(C)c1ccc(S(=O)(=O)N2CCN(c3ccccn3)CC2)cc1 (stereo not shown) | 24.6
* Cc1ccc(-c2c[n+](CC(=O)c3cccs3)c3n2CCC3)cc1.[Br-] | 5.08
* CCOc1cc(/C=N/NC(=O)c2cccnc2)ccc1OCC(=O)N(C)C | 19.3
* CCCCN(CCCC)CC(O)CN(c1cc([N+](=O)[O-])ccc1OC)S(=O)(=O)c1ccccc1 (stereo not shown) | -67
* Cc1ccc(S(=O)(=O)c2c(C)nn(C(C)(C)C)c2OC(=O)c2ccc(Br)o2)cc1 | 7.32
* CCOC(=O)c1sc(NC(=O)COC(=O)CNC(=O)c2ccco2)c(C(=O)OCC)c1C | 4.08
* COc1cc(C)c(Br)cc1S(=O)(=O)NCCN1CCOCC1 | 12.5
* CC1(c2ccccc2)NC(=O)N(CC(=O)NC(=O)NC2CCCC2)C1=O (stereo not shown) | 0.115
* CC1CCN(c2ccc3c(c2)S(=O)(=O)c2ccccc2C3=O)CC1 | 7.82
* COc1ccc(CCNC(=O)Cn2c(=O)n(CC3CCCO3)c(=O)c3ccccc32)cc1OC (stereo not shown) | -0.738
* O=c1cc(-c2ccccc2)nc(N2CCCCC2)[nH]1 | -13.7
* C=CCN(CC=C)CC(O)CN(c1cc([N+](=O)[O-])ccc1OC)S(=O)(=O)c1ccccc1 (stereo not shown) | -10.7
* CCOCCCNC(=O)C(c1ccccc1)N(Cc1cccs1)C(=O)c1ccccc1O (stereo not shown) | 14.3
* CC(C)(C)C1CCC(=NNC(=O)CN(c2ccccc2)S(=O)(=O)c2ccccc2[N+](=O)[O-])CC1 (stereo not shown) | 6.69
* Cc1ccc(-c2c[n+](Cc3cccc(Cl)c3)c3n2CCC3)cc1.[Br-] | -57.7
* COc1cc(C(=O)NCCN2CCOCC2)cc(OC)c1OC | 8.25
* Clc1cccc(C[n+]2cc(-c3ccccc3)n3c2CCC3)c1.[Br-] | -25.7
